Assay: Viability qHTS for spleen associated tyrosine kinase inhibitor (SYKi) drug resistant MV4-11 cells (AID 1963824); further: nearly all actives have a fitted effect of over 35% in size; further: potency means the concentration at half of the fitted maximal effect
Details: SYKi-resistant MV4-11 viability, CellTiter-Glo, 72 h; series mostly up to 45 µM
Inconclusive results are not listed. The source made the active and inactive calls. The call rests on the fitted dose curve; in most records, active means well fitted cell-killing curve with a large enough effect; inconclusive means small, poorly fitted or top-dose-only effect, or effect the other way; inactive means no such curve, though single readings can be large or run the other way.
readout.name: Potency

Here is how some molecules turned out for Potency.
molecule="CC(C)=CCC[C@@](C)(O)[C@H]1CC[C@]2(C)[C@@H]1[C@H](O)CC1[C@@]3(C)CC[C@H](O[C@@H]4O[C@H](CO)[C@@H](O)[C@H](O)[C@H]4O[C@@H]4O[C@H](CO)[C@@H](O)[C@H](O)[C@H]4O)C(C)(C)[C@@H]3CC[C@]12C (stereo partly drawn)" readout_name=Potency assay_result=inactive
molecule=CN[C@H](CC(C)C)C(=O)N[C@H]1C(=O)N[C@@H](CC(N)=O)C(=O)N[C@H]2C(=O)N[C@H]3C(=O)N[C@H](C(=O)N[C@H](C(=O)O)c4cc(O)cc(O)c4-c4cc3ccc4O)[C@H](O[C@H]3C[C@](C)(N)[C@@H](O)[C@H](C)O3)c3ccc(c(Cl)c3)Oc3cc2cc(c3O[C@@H]2O[C@H](CO)[C@@H](O)[C@H](O)[C@H]2O[C@H]2C[C@](C)(NCc3ccc(-c4ccc(Cl)cc4)cc3)[C@@H](O)[C@H](C)O2)Oc2ccc(cc2Cl)[C@H]1O readout_name=Potency assay_result=inactive
molecule="O=C1CCCC2=C1C(c1ncccc1Br)N=C(Nc1nc3ccccc3o1)N2 (stereo not drawn)" readout_name=Potency assay_result="2.59 µM (active)"
molecule="Cc1ccccc1C(=O)Nc1ccc(C(=O)N2CCCC(O)c3cc(Cl)ccc32)c(C)c1 (stereo not drawn)" readout_name=Potency assay_result="20.9 µM (active)"
molecule="C/C=C/C1=CC2=C(CO1)C(=O)C(C)(OC(=O)c1c(C)cc(O)cc1OC)C(O)C2 (stereo not drawn)" readout_name=Potency assay_result="5.08 µM (active)"

// recorded Potency for CC1(C(=O)O)CCCC2(C)C3=CCC4CC3(CCC12)CC4CO (stereo not drawn) : inactive

// recorded Potency for COc1cc(/C=C/CO)cc(OC)c1O[C@@H]1O[C@H](CO[C@@H]2O[C@H](CO)[C@@H](O)[C@H](O)[C@H]2O)[C@@H](O)[C@H](O)[C@H]1O : inactive

// recorded Potency for O=S(=O)(c1cccc2cnccc12)N1CCCNCC1 : inactive

The values you see were collected from PubChem BioAssay (NCATS).
